Here the recorded Ki′ is given for each entry.
system-under-test: human DDC (Homo sapiens, UniProt P20711)
Construct: made in house
method-description: Assay of the inhibitory activity: spectrophotometric measurement of dopamine production by DDC
Format: biochemical
details: mixed or noncompetitive inhibition; 0.1 M potassium phosphate pH 7.4, 25°C; from Lineweaver–Burk plots
Marks after values point to notes of the source that are not given here.

Past entries and their recorded results:
compound | system-under-test | Ki′
Oc1ccc(C=Nn2c(S)nnc2-c2ccc(Cl)cc2)c(O)c1 [Compound 26] | human DDC (Homo sapiens, UniProt P20711) | 65.2±−4.1^b µM
Oc1ccc(/C=N/n2c(S)nnc2-c2ccc(Cl)cc2Cl)c(O)c1 [Compound 35] | human DDC (Homo sapiens, UniProt P20711) | 127±16^b µM

The record that follows has no Ki′ shown yet.
Q) Suppose we examine the compound Nc1c(S(=O)(=O)c2ccccc2)c2nc3ccccc3nc2n1/N=C/c1ccc(O)c(O)c1 [Compound 12] ; what Ki′ value has been reported?
A) 19.4±1.4^b µM

====

system-under-test: human DDC (Homo sapiens)
Construct: made in house
Sequence (P20711 1-480): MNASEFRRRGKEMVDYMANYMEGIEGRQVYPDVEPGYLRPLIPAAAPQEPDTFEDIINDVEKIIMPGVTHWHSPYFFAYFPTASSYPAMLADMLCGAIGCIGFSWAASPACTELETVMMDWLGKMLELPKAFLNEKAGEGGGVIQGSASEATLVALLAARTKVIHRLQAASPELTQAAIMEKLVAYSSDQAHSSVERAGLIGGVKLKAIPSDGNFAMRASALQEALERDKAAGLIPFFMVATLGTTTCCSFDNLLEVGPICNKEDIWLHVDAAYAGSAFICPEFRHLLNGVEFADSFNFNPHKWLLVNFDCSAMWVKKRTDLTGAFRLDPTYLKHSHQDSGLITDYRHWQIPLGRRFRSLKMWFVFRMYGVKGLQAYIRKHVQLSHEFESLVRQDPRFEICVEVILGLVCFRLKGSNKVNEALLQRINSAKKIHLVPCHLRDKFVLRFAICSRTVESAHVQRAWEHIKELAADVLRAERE
method-description: Assay of the inhibitory activity: spectrophotometric measurement of dopamine production by DDC
Assay type: biochemical
details: binding energy per unit of mass, from Ki and molecular weight in kDa
recorded-metric: BE (binding efficiency)

Past entries and their recorded results:
compound | BE (binding efficiency)
Oc1ccc(/C=N/n2c(S)nnc2COc2ccccc2)cc1O [Compound 46] | 17,4
Oc1ccc(/C=N/n2c(S)nnc2-c2ccco2)cc1O [Compound 40] | 19,4
Cc1ccccc1-c1nnc(S)n1/N=C/c1ccc(O)c(O)c1 [Compound 41] | 15,4
Cc1ccc(-c2nnc(S)n2/N=C/c2ccc(O)c(O)c2)cc1 [Compound 42] | 17,5
Cc1nnc(S)n1/N=C/c1ccc(O)c(O)c1 [Compound 39] | 19,9

Q) Suppose we examine the compound COc1cccc(-c2nnc(S)n2/N=C/c2ccc(O)c(O)c2)c1 [Compound 45] ; what BE (binding efficiency) value has been reported?
A) 16,7

Q) Suppose we examine the compound Oc1ccc(/C=N/n2cnnc2)cc1O [Compound 38] ; what BE (binding efficiency) value has been reported?
A) 22,6
